# TEST DESCRIPTION: qHTS of TDP-43 Inhibitors; also: nearly all actives have a fitted effect of over 50% in size
# EXPERIMENTAL CONTEXT: TDP-43 expressing yeast growth rescue, BacTiter-Glo, 24 h; series mostly up to 46.1 µM
The campaign covered roughly 410,000 compounds. About 7,200 (1.8%) were called active. Not shown: some 7% with an inconclusive outcome. Calls follow the shape of the dose curve; as a rule, active = well fitted activation curve with a large enough effect; inconclusive = small, poorly fitted or top-dose-only effect, or another doubt; inactive = no such curve, though single readings can be large or run the other way. The sample as a whole holds a higher share of actives than the screen did.
// allowed return values: active, inactive

Inquiry: Give the logged outcome of this assay for the following compound: `O=C(CSc1nccn1C1CCCC1)Nc1cc(C(F)(F)F)ccc1Cl`
Reply text: inactive

Inquiry: Tell me the assay call for `O=C(CSc1oc(-c2ccc(F)cc2)nc1S(=O)(=O)c1ccc(Br)cc1)NC1CCCCC1` please.
Reply text: inactive

Inquiry: Hey, what did the test say about `Cc1ccccc1OCc1ccc(-c2nc(C#N)c(N3CCCCC3)o2)o1` ?
Reply text: inactive

Inquiry: Per the assay record, what outcome was assigned to `COC(=O)c1ccc2nc(C3CCCCC3)c(Cc3cccc(F)c3)n2c1` ?
Reply text: inactive

Inquiry: Tell me the assay call for `CC1CCN(c2oc(-c3ccccc3F)nc2C#N)CC1` please.
Reply text: active

Inquiry: Called result for `CC(C)(C)Cc1c(C2CCCCC2)nc2ccc(Br)cn12`
Reply text: active

Inquiry: // param item: COc1ccc(CCN2C(=O)c3oc4cc(C)cc(C)c4c(=O)c3C2c2ccccc2F)cc1OC (stereo not given) ; yields the recorded call
Reply text: inactive

Inquiry: Short answer needed: outcome of this test for `Cc1c(NS(=O)(=O)c2ccc(Cl)cc2)c(=O)n(-c2ccccc2)n1C` ?
Reply text: inactive

Inquiry: So what was the verdict on `O=C(Nc1ccc(C(=O)OCc2cc(=O)n3nc(C4CC4)sc3n2)cc1)c1ccc(F)cc1` in this test?
Reply text: inactive

Inquiry: Assay outcome for `Cc1nc2nc(NCc3cccc(Br)c3)[nH]n2c(=O)c1Cc1ccccc1` : what was it?
Reply text: inactive
